biological target: Fuc(a1-2)Gal(b1-3)GlcNAc(b1-3)GalNAc; test: glycan array binding signal (z-score within array); higher = stronger binding; conditions: glycan notation: IUPAC condensed, linker removed
This is one part of a sample in which the strongest signals are shown more often than they occur.
measured-quantity: glycan array binding signal (z-score)
Give the figure by itself; no unit, no explanation.

• MSMEG3662-2a (Mycobacterium smegmatis), A0QYH7_MYCS2 (protein) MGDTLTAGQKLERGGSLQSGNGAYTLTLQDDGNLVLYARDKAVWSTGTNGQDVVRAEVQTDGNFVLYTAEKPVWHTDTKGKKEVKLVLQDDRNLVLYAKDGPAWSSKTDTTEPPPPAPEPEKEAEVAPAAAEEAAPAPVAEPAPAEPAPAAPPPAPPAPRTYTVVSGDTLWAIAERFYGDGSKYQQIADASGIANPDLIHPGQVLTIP = -0.084
• Gal 7 (Homo sapiens) (protein) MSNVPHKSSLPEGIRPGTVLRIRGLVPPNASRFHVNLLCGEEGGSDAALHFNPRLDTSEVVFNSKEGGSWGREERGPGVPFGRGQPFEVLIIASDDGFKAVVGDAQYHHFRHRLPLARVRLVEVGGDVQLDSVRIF = -0.125
• LysMD3 (Homo sapiens), Q7Z3D4 (protein) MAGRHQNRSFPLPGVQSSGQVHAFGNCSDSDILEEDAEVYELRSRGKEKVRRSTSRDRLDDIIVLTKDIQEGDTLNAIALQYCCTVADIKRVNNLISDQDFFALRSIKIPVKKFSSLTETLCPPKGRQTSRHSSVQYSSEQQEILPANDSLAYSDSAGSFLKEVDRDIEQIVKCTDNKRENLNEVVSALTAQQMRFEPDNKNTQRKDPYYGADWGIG = 0.587
• Gal 7 (Canis lupus) (protein) MAGSSNVPHKTSLPEGIRVGTVMRIRGVVPNKAGRFYVNLLCGEAPGSEAALHFNPRLDESTVVFNTLEQGAWGREERGTGIPFQRGQPFDVLLIATDEGFKAVVGDSEYHHFRYRIPPARVRLLEVGGDLQLESVSVF = -0.187
• MXA PilAct-eGFP (Myxococcus xanthus), Q59589 (protein) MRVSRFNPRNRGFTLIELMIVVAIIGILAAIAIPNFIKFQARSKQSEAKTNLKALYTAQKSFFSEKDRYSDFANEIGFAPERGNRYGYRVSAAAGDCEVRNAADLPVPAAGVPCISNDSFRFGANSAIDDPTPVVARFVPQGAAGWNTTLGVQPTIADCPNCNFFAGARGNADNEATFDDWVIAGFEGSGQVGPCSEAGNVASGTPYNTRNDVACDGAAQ = -0.348

Value lookup for glycan array binding signal (z-score); key = Clec12b (Mus musculus), Q149M0 (protein) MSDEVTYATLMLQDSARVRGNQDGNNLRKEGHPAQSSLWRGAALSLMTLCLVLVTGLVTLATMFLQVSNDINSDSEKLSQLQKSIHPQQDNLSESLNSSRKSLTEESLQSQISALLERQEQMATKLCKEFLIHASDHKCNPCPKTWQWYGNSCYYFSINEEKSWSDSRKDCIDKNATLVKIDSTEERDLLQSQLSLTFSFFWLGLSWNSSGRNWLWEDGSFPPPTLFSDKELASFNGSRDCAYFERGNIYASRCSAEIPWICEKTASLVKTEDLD
-0.484
